Taken from a melting point compilation (Tetko et al.; mined from patent text by program, amines drawn as free bases though some values may be those of a salt).

ENDPOINT_LABEL: melting point

> print(dat)
                                    compound  endpoint.label  endpoint.value
 1    N#CC(C#N)=C1N(CCCN2CCCC2)CCN1CCN1CCCC1   melting point     70 to 71 °C
 2  CC(=O)NC1CCC(NC(=O)C2CC3c4cccc5c4c(cn5C(C)C)CC3N(C)C2)CC1 (stereo not drawn)   melting point        > 280 °C
 3  Cc1cccc(S(=O)(=O)Nc2cc(C)c(S(=O)(=O)C[N+](=O)[O-])c(C)c2)c1   melting point   179 to 181 °C
 4  O=c1nc(-c2cccc(CNS(=O)(=O)c3ccccc3)n2)sc2ccccc12   melting point   207 to 208 °C
 5  CNC(=O)C(N)Cc1ccc2ccccc2c1 (stereo not drawn)   melting point   127 to 128 °C
 6  CC(C)(OCc1cc2nc(Cl)ccc2n1S(=O)(=O)c1ccc2c(c1)OCO2)C(=O)O   melting point          172 °C
 7     Cc1ccccc1Cc1ccc(-c2cnn3c(O)ncnc23)cc1   melting point   274 to 279 °C
 8  CC#CCOc1ccc(S(=O)(=O)N2Cc3ccccc3N(C(=O)c3ccco3)CC2C(=O)OC)cc1 (stereo not drawn)   melting point   119 to 120 °C
 9          COC(=O)CCc1nc(-c2cc3ccccc3o2)no1   melting point   112 to 113 °C
10                  Cn1cc([N+](=O)[O-])cc1CO   melting point     89 to 90 °C
11  O=C(O)c1ccc(OCCCc2ccc(OCc3ccccc3)cc2)cc1   melting point   128 to 130 °C
12     CNc1cc(NS(=O)(=O)c2ccc(F)cc2)nc(NC)n1   melting point   261 to 263 °C
13        COc1ccc(-c2ccnc3c(C(N)=O)ncn23)cc1   melting point   246 to 249 °C

====

ENDPOINT_LABEL: melting point

> print(dat)
                                    molecule  endpoint.label  endpoint.value
 1  O=C(Nc1ccc(-c2ncc(-c3cccc(NC(=O)c4ccccn4)c3)[nH]2)cc1)c1ccccn1   melting point   255 to 257 °C
 2  COc1ccc(-c2[nH]nc3c2C(=O)c2c(NC(=O)Nc4ccccc4)cccc2-3)cc1   melting point        > 300 °C
 3  CC(C)(C)C(O)Cn1c(=O)c(=NNc2ccccc2)c(=O)n(-c2ccccc2F)c2ccccc21 (configuration not stated)   melting point   217 to 218 °C
 4  CC(C(=O)O)c1cccc2c1Oc1ccccc1CC2=O (configuration not stated)   melting point   159 to 160 °C
 5  C=C(C)[C@@H]1CC(=O)[C@H](C)[C@H]1c1nc2c([nH]1)c(=O)n(CCC)c(=O)n2CCC   melting point   136 to 137 °C
 6                   CC(C)c1c(Br)ccc(N)c1C#N   melting point     82 to 85 °C
 7  O=C1Nc2ccccc2C12COc1ccc3c(c12)OCCO3 (configuration not stated)   melting point   259 to 261 °C
 8  CC(c1oc2ccccc2c(=O)c1-c1cccc(F)c1)n1nc(-c2ccc(O)cc2)c2c(N)ncnc21 (configuration not stated)   melting point   244 to 247 °C
 9  CC(C)CNC(=O)C(C)NC(=O)OCc1ccccc1 (configuration not stated)   melting point   109 to 111 °C
10  O=C1c2cccc(O)c2C(=O)c2c(NCCCCO)ccc(O)c21   melting point          168 °C
11  O=C(Nc1nc(-c2ccco2)c(-c2ccncc2)s1)c1ccnc(CN2CCC(O)CC2)c1   melting point   203 to 208 °C
12  O=c1[nH]c(CCN2CCCC(O)C2)cc2ccccc12 (configuration not stated)   melting point   192 to 193 °C
13     CC1(C)C(=O)Nc2ccc(C#N)cc2N(C2CC2)C1=O   melting point   252 to 253 °C
14  CN1CCC(NC(=O)Nc2ccccc2CCc2cc(C(C)(C)C)c(O)c(C(C)(C)C)c2)CC1   melting point   193 to 195 °C
15                  CCN1C(=O)c2ccc(N)cc2C1=O   melting point   169 to 171 °C
16  OC(c1ccccc1)c1ccccc1CNC(=S)NCCc1ccccc1 (configuration not stated)   melting point   117 to 119 °C
17  Cc1ccc(S(=O)(=O)N2N=C(c3ccccc3)CC3CC=CC32)cc1 (configuration not stated)   melting point   163 to 165 °C
18  CCCCCCNC(=O)[C@@H](NC(=O)[C@H](CC(C)C)NC(=O)OC(C)(C)C)C(C)C   melting point   115 to 116 °C
19  CC(O)c1ccc(-c2ccc(C(F)(F)F)cc2)cc1 (configuration not stated)   melting point   116 to 117 °C
20         C=CCNc1nc(NCC(C)(C)C)c2scc(C)c2n1   melting point     90 to 92 °C
21  COc1cc2c3c(ccc([N+](=O)[O-])c3c1[N+](=O)[O-])C(=O)N(O)C2=O   melting point   272 to 273 °C
22  O=c1cc(C(F)(F)F)[nH]c(=O)n1Cc1cc(Cl)cc(Cl)c1Cl   melting point   199 to 202 °C

====

ENDPOINT_LABEL: melting point

> print(dat)
                                    compound  endpoint.value
 1  Cc1nccc2c3ccc(OCc4ccc(F)cc4)cc3n(Cc3ccc(F)cc3)c12          175 °C
 2  N#Cc1nn(-c2c(Cl)cc(-c3ccc(C(F)(F)F)cc3)cc2Cl)c(N)c1Br   178 to 180 °C
 3           O=CNNc1ccc(NC(=S)NCc2ccccc2)cc1   152 to 154 °C
 4  CS(=O)(=O)c1ccc(-n2nc(-c3ccc4c(c3)CCN(C3CCC3)CC4)ccc2=O)cc1          225 °C
 5          CCCCNC(=O)Cc1ccc(O)c(C2CCCCC2)c1   118 to 120 °C
 6     CN(C)C(=O)Sc1ccccc1C(=O)c1ccc(C#N)cc1          102 °C
 7  Cc1nc(-n2cc(-c3ccsc3)nn2)sc1C(=O)NCc1ccccc1   123 to 126 °C
 8                  Nc1cccc2ccc(OCC3CC3)cc12     49 to 50 °C
 9  Nc1nc(N)nc(-c2ccc(-c3ccccc3)c3ccccc23)n1   239 to 240 °C
10  CCc1c(C)[nH]c2cc(OCCN3CCOCC3)c(Cl)cc2c1=O   270 to 271 °C
11  CNC(=O)c1sc(C(C)(C)C)cc1NC(=O)Nc1ccc(F)cc1   203 to 204 °C
12  COc1cc(C#CCO)cc2c(O)c(C(=O)NCc3ccc(Cl)cc3)cnc12   207 to 208 °C
13   COc1ccc2c(c1)CC(O)C2 (stereo not given)     67 to 69 °C
14  C#CCOC1(C(F)(F)F)CN(C)C(=O)Nc2ccc(Cl)cc21 (stereo not given)   230 to 232 °C
15  COc1cc(OC)cc(-c2ncn(C)c2-c2cc(F)c(F)c(F)c2)c1   159 to 160 °C
16      CCOC(=O)c1[nH]c(C)c(-c2ccc(F)cc2)c1C   174 to 175 °C
17           CCc1cc2ccccn2c1C(=O)c1ccc(O)cc1   179 to 180 °C
18  O=C(SC[C@@H](SC(=O)c1ccccc1)C(=O)N1CCC[C@H]1C(=O)O)c1ccccc1   195 to 196 °C
19  CN1CC[C@@H](c2c(O)cc(O)c3c(=O)cc(-c4ccccc4Br)oc23)[C@@H]1CO   235 to 237 °C
20  CSC(=S)N1C(CO)Cc2c([nH]c3ccccc23)C1C (stereo not given)   153 to 156 °C

====

Property: melting point; scope: individual molecules
ENDPOINT_LABEL: melting point

> print(dat)
                                    molecule  endpoint.label  endpoint.value
 1  O=C(c1ccc(Cl)cc1)c1c(N2C(=O)c3ccccc3C2=O)sc(-c2ccccc2)c1CBr   melting point   160 to 161 °C
 2  Cc1cc(SCc2ccnc3sc(-c4ccc(C(F)(F)F)cc4)nc23)ccc1OCC(=O)O   melting point     82 to 85 °C
 3  O=C(NCCc1ccccn1)c1ccc(S(=O)(=O)Nc2cccc3c(Cl)c[nH]c23)cc1   melting point   220 to 222 °C
 4  CNCC(O)c1ccc(Cl)cc1 (configuration not stated)   melting point     84 to 86 °C
 5    CCc1c(-c2cc(C)c(O)c(C)c2)[nH]c2ccccc12   melting point          107 °C
 6              O=[N+]([O-])c1cc(Br)nc(Br)c1   melting point   122 to 123 °C
 7  COC(=O)C1(O)CSC(SC(C)=O)=C1Cl (configuration not stated)   melting point   133 to 135 °C
 8  CC(C)(C)ON1C(C)(C)CC(OC(=O)c2ccccc2)CC1(C)C   melting point   80 to 82.5 °C
 9  CN(Cc1cccc2c1CN(C1CCC(=O)NC1=O)C2=O)C(=O)Nc1cccc(F)c1 (configuration not stated)   melting point   218 to 220 °C
10  Nc1nc(CCCO)nc2c1ncn2C1OC(CO)C(O)C1S (configuration not stated)   melting point   117 to 119 °C
11  OCC1c2ccccc2-c2c1c1ccccc1c1ccccc21 (configuration not stated)   melting point   143 to 145 °C
12                    COC(=O)c1ccc(=O)n(N)c1   melting point   136 to 137 °C
13  CCOc1cccc(NC(=O)NC2N=C(c3ccccc3F)c3ccccc3N(CC(=O)N3CC4CCC(CC4)C3)C2=O)c1 (configuration not stated)   melting point   158 to 166 °C
14           N#Cc1ccc(N2CCC(F)(F)C2)c2ccsc12   melting point   169 to 170 °C
15  COc1ccc2cc([C@H](C)C(=O)OCC3(C(SN=O)(C4CC4)C4CC4)CCN(C)CC3)ccc2c1   melting point           88 °C
16  Cc1cn(C(C)(C(=O)N(C)C)c2ccccc2)nc1-c1ccccc1Cl (configuration not stated)   melting point     96 to 99 °C
17                Oc1ccc(-c2nc(Br)c[nH]2)cc1   melting point   210 to 212 °C
18  COc1ccc(S(=O)(=O)N2Cc3[nH]c4ccccc4c3CC2C(=O)O)cc1 (configuration not stated)   melting point          154 °C
19  COC(=O)c1ccc(C)c(-n2c(C)cc(OCc3ccccc3CNC(=O)Nc3cc(C(C)(C)C)nn3-c3ccc(Cl)c(O)c3)c(Cl)c2=O)c1   melting point   193 to 195 °C
20  c1cc(-c2ccc(-n3c4ccccc4c4ccccc43)cc2)cc(-n2c3ccccc3c3ccccc32)c1   melting point   244 to 246 °C
21  O=S(=O)(NCCCO)c1ccc(Nc2nccc(-c3ccc(C(F)(F)F)cc3)n2)cc1   melting point   204 to 205 °C
22  CC(=O)c1cncn1C1c2ccccc2CC1(C)C (configuration not stated)   melting point     69 to 70 °C
